Origin of the recorded values: PubChem BioAssay (NCI)

Tested on: M14 melanoma
Assay: NCI tumour cell line growth inhibition, 48 h
*1 amine or outer side, *2 acyl side, *3 side chain or, on linkers, in order; H or OH if unused. Where a SMILES comes first, the peptide text is derived from it. [ ]: non-standard residue; d: D form. The star is where a group is joined. X31 = CC(=O)N(C)SCC(N[*:1])C(=O)[*:2]; X47 = CC(=O)N(C)SCC(N*)/C(O)=N\O; Cbz = O=C(OCc1ccccc1)*; Bn = c1ccc(C*)cc1; For = O=C*
REPORTED_PROPERTY: TGI

>>> result("CCOC(=O)C1(C(N)=O)C(=O)c2ccncc2C1=O (stereo not drawn)")
"> 100 µM"
>>> result("OC(c1cccc(-n2ccc(C(F)(F)F)n2)c1)c1cnccc1NC1CCCCCC1 (stereo not drawn)")
"3.29 µM"
>>> result("CC[C@]1(O)CC(OC2CC(N(C)C)C(O)C(C)O2)c2c(cc3c(c2O)C(=O)c2c(O)cccc2C3=O)[C@@H]1C(=O)OC (stereo partly drawn)")
"2.07 µM"
>>> result("CC(=O)N(C)SCC(NC(=O)C(Cc1ccccc1)NC(=O)OCc1ccccc1)C(=O)NC(Cc1ccccc1)C(=O)NC(Cc1cn(C=O)c2ccccc12)C(=O)NC(CCCCNC(=O)OCc1ccccc1)C(=O)NC(C(=O)NC(CSN(C)C(C)=O)/C(O)=N\\O)C(C)OCc1ccccc1 (stereo not drawn) (Cbz-F[X31]FW(For)K(Cbz)T(Bn)-X47; configuration not given here)")
"> 100 µM"
>>> result("OCC1OC(n2nc(-c3ccccc3)nc2-c2cnccn2)C(O)C(O)C1O (stereo not drawn)")
"> 100 µM"
>>> result("COC(=O)[C@@]12C(=O)C=CC(=O)[C@@H]1C1C(=CC2COC(C)=O)O[C@@H]2OC3(CCCCC3)O[C@H]12 (stereo partly drawn)")
"30.1 µM"
>>> result("N=C(N)c1ccc(OCc2cccc(COc3ccc(C(=N)N)cc3)c2)cc1")
"7.35 µM"
>>> result("Cc1ccc(S(=O)(=O)c2c(N)c3nc4ccccc4n3c3nc4ccccc4nc23)cc1")
"> 100 µM"
>>> result("Nc1sc2c(c1C(=O)c1ccc(Cl)c(Cl)c1)CCCC2")
"> 100 µM"
>>> result("CC[C@@]1(N(C)C)C(=O)OCc2c1cc1n(c2=O)Cc2cc3ccccc3nc2-1")
"> 100 µM"
>>> result("Cc1c(N2CCCC2)cc2c(c1NC(=O)c1ccccc1Cl)C(C)(C)CC2(C)C")
"26.8 µM"
>>> result("COc1cc(Cc2cc3c(c(C(=O)O)c2Br)OCO3)cc(OC)c1OC")
"> 100 µM"
>>> result("CCOC(=O)CN1C(=O)c2c(c(C)n(-c3ccccc3)c2C)C1=O")
"> 100 µM"
>>> result("COc1ccc(C(=O)c2cc(OC)c(OC)c(OC)c2)cc1")
"> 100 µM"
>>> result("CC1(C)[C@H](C(=O)O)N2C(=O)[C@@H](NS(=O)(=O)c3ccc([N+](=O)[O-])cc3)[C@H]2S1(=O)=O")
"> 100 µM"
>>> result("COC(=O)CCc1cc(OC)c(O)c(C(Cc2ccc(OC)c(OC)c2)C(=O)OC)c1 (stereo not drawn)")
"> 100 µM"
>>> result("COc1ccc2[nH]c(=O)c3c4ccccc4cn3c2c1")
"1.92 µM"
>>> result("Cc1c(NC(=S)NN)c(=O)n(-c2ccccc2)n1C")
"> 100 µM"
